PROCEDURE DETAILS: NCI Yeast Anticancer Drug Screen. Data for the bub3 strain (AID 167)
CONDITION DETAILS: S. cerevisiae bub3 mutant strain, at 50.0 µM, stronger effect = higher value
Method: Growth inhibition of yeast strains with defined genetic alterations is measured as a screen for potential anti-cancer activity. Selected strains with alterations in DNA damage repair or cell cycle control were exposed to compounds and growth inhibition was measured relative to vehicle treated controls. The strain used in this assay is bub3
About 79,000 compounds went through this panel and 15% of them were active in at least one assay; those are over-represented in the sample as a whole.
# reported growth inhibition; entries follow
# unit: % | format: bare number

Cc1nc2c(=O)[nH]c(=O)[nH]c2[nH]c1=O
2.55
[Cl][Cu][Cl].c1ccc2c(c1)Sc1ccccc1[N+]2=c1ccc2nc3ccccc3sc-2c1
29.9
CC(=O)/C=C1/NC(C(=O)c2ccccc2)=CNC1c1ccccc1 (configuration not stated)
9.95

Look up growth inhibition: CC(=O)[O-].O=S(=O)(Nc1ncccn1)c1ccc(N=Cc2ccccc2O)cc1.O=S(=O)(Nc1ncccn1)c1ccc(N=Cc2ccccc2O)cc1.[Cu+2]
-17.6

Can you handle O=C(Nc1ccccc1)Nc1ccc(-c2ccccc2)cc1 next?
37.6

Can you handle COC(=O)/C=C\C1(CC(C)C)N=C(c2ccccc2)OC1=O (configuration not stated) next?
36.1

Can you handle CC(=O)Nc1cccc(NC(C)=O)c1 next?
-1.05

Can you handle CCCCc1noc(N)c1SCC next?
-9.2

Can you handle O=C(O)c1nnn(Cc2ccccc2)c1C(=O)O next?
15.8

Can you handle CCOC(=O)NC(=O)c1cn(C2OC(CO)C(O)C2O)c(=O)[nH]c1=O (configuration not stated) next?
28.6

Can you handle CC(=Nc1ccc(C)cc1N)c1c(O)cc(C)oc1=O next?
1.3

Can you handle COc1ccc(-c2cc(C(=O)O)c3cc4ccccc4cc3n2)cc1Br next?
2.95

----------
PROCEDURE DETAILS: NCI Yeast Anticancer Drug Screen. Data for the sgs1 mgt1 strain (AID 161);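 also: 0% = growth of cultures given vehicle only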
CONDITION DETAILS: S. cerevisiae sgs1 mgt1 strain, at 50.0 µM, stronger effect = higher value
Compounds without any hit were thinned out: in the full panel of roughly 79,000, 15% have a hit.
# reported growth inhibition; entries follow
# unit: % | format: bare number

Solved cases below.
CS(=O)c1ccc(/C=C2/C=Cc3ccccc32)cc1 (stereo not drawn)
30.5
OC(CC1CCCCN1)c1ccc2c(c1)oc1ccccc12 (stereo not drawn)
62.2
CN(C)c1ccccc1N(C)C
-14.9
O=C1OC(c2ccccc2)=N/C1=C/N1CCCC1C(=O)O (stereo not drawn)
15.9
CC(=O)Nc1ccc(S(=O)(=O)Oc2noc3ccccc23)cc1
16.2

Look up growth inhibition: C[N+]1(C)CCCC(c2ccccc2)(c2ccccc2)C(O)C1 (stereo not drawn)
11.2

Can you handle O=C(O)c1ccc(C(=O)O)c(C(=O)Nc2ccc3c(c2)C(=O)c2ccccc2-3)c1 next?
-2.15

Can you handle CC1CCC(C(C)C)C2(C1)OC(CCl)CS2 (stereo not drawn) next?
7.8

Can you handle CCCCCCCCCSCCS next?
2

Can you handle CCOP(=O)(OCC)/C(C#N)=C\c1ccc(OC(C)=O)cc1 next?
-9

Can you handle COc1cc(-c2c(C)c(C)nc(OC)c2C#N)cc(OC)c1OC next?
-24

Can you handle O=c1[nH]cccc1O next?
-17

Can you handle CC(=O)O[C@H]1CC(C)(C)C(=C=C/C(C)=C/C=C/C=C/C=C(C)/C=C2C=C(/C=C/[C@@]34O[C@]3(C)C[C@@H](O)CC4(C)C)C(=O)O/2)[C@](C)(O)C1 next?
0.9
